Tested on: SW-620 colon
Protocol text: NCI-60 one-dose screen, 48 h (100 = growth as untreated, 0 = no growth, -100 = all killed)
Measurement parameters: 10 µM unless noted
This is part of a sample that, as a whole, favours compounds with a hit. Of some 83,000 tested, about 20% had one in any assay. Active and inactive are the calls of the source. The calls were made as follows: active = growth percent below 10; inactive = the rest.
# growth values compiled below

Compound	growth
COc1cccc2cc(-c3cc4ccccc4[nH]3)/c(=N/C(=S)Nc3ccc(C)cc3)oc12	78% (inactive)
CCC(C)C(N)C(=O)NNc1n[nH]c(=S)n1N (stereo not given)	96.9% (inactive)
Cc1nc2sc(C(=O)Nc3cccc(Br)c3)c(N)c2cc1C(=O)c1ccc(C(F)(F)F)cc1	72.2% (inactive)
O=C(Cc1ccc(/C=C/C(=O)c2ncc[nH]2)cc1)Nc1ccc(C(F)(F)F)cc1	-16.1% (active)
Cc1ccc(C2CC(c3cccc(Nc4ccncc4)c3)=NN2c2ccccc2)cc1 (stereo not given)	-62.7% (active)
CC(C)(C)OC(=O)N1CCN(c2ccc(N)cc2)C(=O)C1	109% (inactive)
COc1cc(CNC(=O)CCCCC[P+](c2ccccc2)(c2ccccc2)c2ccccc2)c(OC)c2c1OCO2	70.7% (inactive)
O=C(O)c1ccc[n+](CC(=O)N2CCN(c3cc4c(cc3F)c(=O)c(C(=O)O)cn4C3CC3)CC2)c1	-3.29% (active)
COc1cccc(NC(=O)c2cccc(-c3cc(=O)c4c(OC)c(OC)c(OC)cc4o3)c2)c1	89.6% (inactive)
CCN(CC)CCCC(C)Nc1c2c(nc3ccc(OC)cc13)CCCC2 (stereo not given)	103% (inactive)

* * *

System: SF-295 CNS
Protocol text: NCI-60 one-dose screen, 48 h
Measurement parameters: 10 µM unless noted
This is part of a sample that, as a whole, favours compounds with a hit. Of some 83,000 tested, about 20% had one in any assay. Activity calls are given as the source filed them. Rule for the calls: active = growth percent below 10; inactive = the rest.
Possible outcomes: active, inactive

Molecule	Class
O=C(Nc1cccc(Cl)c1)Oc1c(Br)c(Br)c(Br)c(Br)c1Br	inactive
COc1cc(C(=O)/C=C/c2c(C)n([O-])c3ccc(Cl)cc3[n+]2=O)cc(OC)c1OC	inactive
Cc1ccc(C2CC(c3cccc(Nc4ccncc4)c3)=NN2c2ccccc2)cc1 (stereo not given)	active
COc1ccccc1/C=N/NC1=NC2C(N1)N(C)C(=O)N2C (stereo not given)	inactive
CCOC(=O)c1c(SC)nn(-c2cc(=O)[nH]c3ccc(Br)cc23)c1N	inactive
COc1ccc(/C=N/C2=C(C#N)C(c3ccccc3[N+](=O)[O-])c3ccc4ccccc4c3O2)cc1 (stereo not given)	inactive
Cc1cc2cc3cc(C)c(N)cc3[n+](C)c2cc1N	active
C=C1C(=O)O[C@H]2[C@H]1CC/C(CNC(=O)/C=C/c1ccccc1F)=C\CC[C@@]1(C)O[C@@H]21	inactive
CCn1cc(C2NC(=O)c3ccccc3N2)c2cccc(C)c21 (stereo not given)	active
S=c1[nH]cccc1-c1nnc2n1Nc1nc3ccc(Cl)cc3cc1CS2	inactive
O=[N+]([O-])c1cccc(-c2nc(-c3ccc(Cl)cc3Cl)cn2-c2ccccc2)c1	active
COc1ccc2nc(N=Nc3c(O)ccc4ccccc34)sc2c1	inactive
NC(=O)c1cccc(-c2cc(C(N)=O)ccc2Cl)c1	inactive
Clc1nc(Cl)c2ncn(CC3(Cn4cnc5c(Cl)nc(Cl)nc54)COC3)c2n1	active
Cc1ccc(C2C3CC4CCCCC4N3[C@@]3(C(=O)Nc4cc(Cl)ccc43)C2C(=O)c2nc3ccccc3[nH]2)cc1 (stereo not given in full)	inactive
COc1cc(OC)c(/C=C/C(=O)c2ccc(Nc3ncnc4ccccc34)cc2)c(OC)c1	active
COc1cc(NCCN(CC(C)C)C2CCCC2)c2ncccc2c1	inactive
CC1(C)CC[C@]2(C(=O)NCC#CCN3CCOCC3)CC[C@]3(C)C(=CC[C@@H]4[C@@]5(C)Cc6c([nH]c7ccccc67)C(C)(C)[C@@H]5CC[C@]43C)[C@@H]2C1	inactive
COc1ccc2c(c1)OC1=C(C(=O)OC1)C2c1cc(OC)c(OC)c(OC)c1 (stereo not given)	active
N#Cc1ccc(-c2ccc3c(c2)NC(=O)/C3=C\c2ccc[nH]2)cc1	inactive

* * *

System: SK-MEL-2 melanoma
Protocol text: NCI-60 one-dose screen, 48 h
Measurement parameters: 10 µM unless noted
Compounds without any hit were thinned out: in the full panel of roughly 83,000, 20% have a hit. Calls of active or inactive are those of the source. The calls were made as follows: active = growth percent below 10; inactive = the rest.
Possible outcomes: TRUE for active, FALSE for inactive

Compound	Class
O=c1[nH]c2c(s1)CCCC2CN1CCCCC1 (centres undefined)	FALSE
COc1cc(C2CC(c3cccc(Nc4ccncc4)c3)=NN2c2ccccc2)cc(OC)c1OC (centres undefined)	FALSE
COc1ccc(C2CC(c3cccc(Nc4ccncc4)c3)=NN2c2ccccc2)cc1 (centres undefined)	FALSE
Nc1nc(SN=Nc2ccc(S(N)(=O)=O)cc2)c2[nH]cnc2n1	TRUE
Cc1nn(-c2ccccc2)c(N2CCOCC2)c1/C=N/N=c1\sc2ccccc2n1C	FALSE
COc1cc2ncnc(Nc3ccc(C(=O)/C=C/c4ccc(C(F)(F)F)cc4F)cc3)c2cc1OC	FALSE
CC1(C)CCCN1CCCN1c2ccccc2Sc2ccc(Cl)cc21	FALSE
Nc1c(C(=O)Nc2cccc3ccncc23)sc2nc3c(cc12)C(=O)CCC3	FALSE
COc1cc(C(=O)c2cnc(-c3ccc4cc[nH]c4c3)[nH]2)cc(OC)c1OC	FALSE
O=S(=O)(NCCCNc1nccc(-c2c(-c3cccc(O)c3)nc3occn23)n1)c1ccc(Br)cc1	FALSE
O=C(N/N=C/c1ccc(F)cc1)c1ccccc1Nc1cccc(C(F)(F)F)c1	FALSE
O=C1C(=O)c2c(nc3ncccn23)-c2ccccc21	TRUE
FCc1nc2nc(Cl)c(Cl)nc2[nH]1	FALSE
C#Cc1cccc(NC(=O)Nc2ccc(NC(=O)CCl)cc2)c1	TRUE
Cc1cc(Nc2cccc(C(F)(F)F)c2)n2c(nc3ccccc32)c1C#N	FALSE
Cc1c(C2=CCCCC2)c2ccccn2c1C(=O)c1cccc(S(=O)(=O)N2CCOCC2)c1	FALSE
[2H]C1([2H])NC([2H])([2H])C([2H])([2H])N(c2ccc(Nc3ncc4cc(C(=O)N(C)C)n(C5CCCC5)c4n3)nc2)C1([2H])[2H]	FALSE
CCCCc1ccc(Nc2nnc(SCC(=O)NC(=O)NCC)s2)cc1	FALSE
NC(=O)C1(N2CCCCC2)CCN(CCCC(=O)c2ccc(F)cc2)CC1	FALSE
COc1ccncc1C#Cc1cncc(C(=O)Nc2ccc(CN3CCN(C)CC3)c(C(F)(F)F)c2)c1	TRUE
NNC(=O)/C(=C\c1ccc([N+](=O)[O-])cc1)CC(=O)c1ccc(Cl)c(Cl)c1	FALSE
CC(O)(CO)c1ccccc1 (centres undefined)	FALSE
Cn1c(COC(=O)N2CCCCC2)nc2c(N3CCOCC3)nc(-c3ccccc3)nc21	TRUE
Fc1ccc(C2CC(c3cccc(Nc4ccncc4)c3)=NN2c2cc(Cl)cc(Cl)c2)cc1 (centres undefined)	FALSE
COc1ccc(-c2ncc(-c3ccccc3)[nH]2)cc1OC	FALSE
CCOC(=O)c1ccc(Nc2ccnc(SCC(=O)c3ccc(C#N)cc3)n2)cc1	FALSE
COc1ccc(C(O)c2cc3c(N)c(C(=O)Nc4cccc(OC)c4)sc3nc2C)cc1 (centres undefined)	FALSE
CN(C)c1ccc(-c2c(C#N)c(N)n3nc(N)c(C#N)c3c2C#N)cc1	FALSE
O=c1nc2n(nc1/C=C/c1ccco1)CC(c1ccc(Cl)cc1)=NN2	FALSE
BrC(Br)(Br)c1cnc2ccccc2n1	FALSE
Cc1nc2sc(C(=O)Nc3cccc(Br)c3)c(N)c2cc1C(=O)c1ccc(C(F)(F)F)cc1	FALSE
CCc1nc(C)cn1C(=O)OCc1nc2nc(Cl)nc(N3CCOCC3)c2[nH]1	TRUE
COc1ccc(C(O)c2cc3c(N)c(C(=O)Nc4ccc(Cl)cc4)sc3nc2C)cc1 (centres undefined)	FALSE
CCOC(=O)Oc1c(OC)cc(C(=O)O[C@@H]2C[C@@H]3CN4CCc5c([nH]c6cc(OC)ccc56)[C@H]4C[C@@H]3[C@H](C(=O)OC)[C@H]2OC)cc1OC	FALSE
COc1cccc(/C=C2\COc3ccc(-c4ccccc4)cc3C2=O)c1	TRUE
Cc1[nH]n(-c2cccc(Cl)c2)c(=O)c1/C=C1\C=Nc2ccc(Br)cc21	FALSE
CCN1C(=O)/C(=c2\sc3n(c2=O)NC2C(N=3)N(CC)C(=O)N2CC)c2ccccc21 (centres undefined)	FALSE
O=C(N/N=C/c1cccnc1)c1ccccc1Nc1cccc(C(F)(F)F)c1	FALSE
Cc1cc(NC(=O)c2cnc(N3CCN(CCOCCOCCOCCOCCC(=O)N[C@H](C(=O)N4C[C@H](O)C[C@H]4C(=O)N[C@@H](C)c4ccc(-c5scnc5C)cc4)C(C)(C)C)CC3)cn2)c2ncccc2c1	TRUE
